Each recorded value in this set is attributed to paper PMC3961306.

Target under test: panel of more than 300 wild-type and mutant kinases (313 kinase panel) (Homo sapiens)
Sequence (P30291 whole entry, change not shown): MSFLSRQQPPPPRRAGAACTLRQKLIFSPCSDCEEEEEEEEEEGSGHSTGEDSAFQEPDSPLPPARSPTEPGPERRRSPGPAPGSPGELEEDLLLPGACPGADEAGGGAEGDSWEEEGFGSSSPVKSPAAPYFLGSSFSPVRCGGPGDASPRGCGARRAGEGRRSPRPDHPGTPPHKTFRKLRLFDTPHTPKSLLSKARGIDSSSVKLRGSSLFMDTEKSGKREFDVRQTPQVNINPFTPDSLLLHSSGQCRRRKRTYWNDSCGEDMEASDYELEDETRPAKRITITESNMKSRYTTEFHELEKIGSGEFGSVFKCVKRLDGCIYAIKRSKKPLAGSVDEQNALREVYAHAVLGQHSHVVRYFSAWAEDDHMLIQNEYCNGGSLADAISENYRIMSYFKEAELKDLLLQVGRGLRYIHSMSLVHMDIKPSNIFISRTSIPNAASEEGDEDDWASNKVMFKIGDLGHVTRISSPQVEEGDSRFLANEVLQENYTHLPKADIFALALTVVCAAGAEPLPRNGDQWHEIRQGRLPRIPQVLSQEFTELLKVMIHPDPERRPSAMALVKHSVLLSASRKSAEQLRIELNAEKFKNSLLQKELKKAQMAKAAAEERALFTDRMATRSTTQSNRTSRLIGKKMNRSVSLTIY
Measurement notes: Kinase profiling in a biochemical assay panel (mobility shift assays and ELISA), %-inhibition at 1 μM; selectivity entropy
Run parameters: kinase WEE1; compound at 1 μM
Experimental endpoint: %-inhibition of WEE1 (%)
Reply with just the number (in %).

Reference set (3 entries):
O=S(=O)(c1cccc2cnccc12)N1CCCNCC1 : -0.258
CC(=O)Nc1cccc(-n2c(=O)n(C3CC3)c(=O)c3c(Nc4ccc(I)cc4F)n(C)c(=O)c(C)c32)c1 : 9
Cc1ccc(C(=O)Nc2ccc(CN3CCN(C)CC3)c(C(F)(F)F)c2)cc1C#Cc1cnc2cccnn12 : 2.14

Bench note: what %-inhibition of WEE1 did N#CC[C@H](C1CCCC1)n1cc(-c2ncnc3[nH]ccc23)cn1 show?
-1.32

Bench note: what %-inhibition of WEE1 did COc1cc2nccc(Oc3ccc(NC(=O)C4(C(=O)Nc5ccc(F)cc5)CC4)cc3)c2cc1OC [cabozantinib] show?
5.45
